B1: glmS ribozyme (parent)
chain: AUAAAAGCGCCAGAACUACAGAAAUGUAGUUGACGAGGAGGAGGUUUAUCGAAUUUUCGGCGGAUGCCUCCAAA

variants of: B1; test: self-cleavage kobs at 40 uM GlcN6P; higher = faster cleavage; RNA array; conditions: with glucosamine-6-phosphate
Fewer inactive variants are shown than the library holds.
MEASURE_NAME: self-cleavage kobs at 40 uM GlcN6P

Problem: Fill in self-cleavage kobs at 40 uM GlcN6P for record G41A G44A
Solution: < 1e-05 s⁻¹

Problem: Fill in self-cleavage kobs at 40 uM GlcN6P for record G40U G51A U54A A64U
Solution: < 1e-05 s⁻¹

Problem: Fill in self-cleavage kobs at 40 uM GlcN6P for record G9A G35U
Solution: < 1e-05 s⁻¹

Problem: Fill in self-cleavage kobs at 40 uM GlcN6P for record A14G U46C
Solution: 0.000504 s⁻¹

Problem: Fill in self-cleavage kobs at 40 uM GlcN6P for record U30C G59C
Solution: < 1e-05 s⁻¹

Problem: Fill in self-cleavage kobs at 40 uM GlcN6P for record C58A G63U U69C
Solution: < 1e-05 s⁻¹

Problem: Fill in self-cleavage kobs at 40 uM GlcN6P for record A48U U57G
Solution: < 1e-05 s⁻¹

Problem: Fill in self-cleavage kobs at 40 uM GlcN6P for record U30A U49C
Solution: < 1e-05 s⁻¹

Problem: Fill in self-cleavage kobs at 40 uM GlcN6P for record G38U A64G
Solution: < 1e-05 s⁻¹

Problem: Fill in self-cleavage kobs at 40 uM GlcN6P for record G40A C58G C70U
Solution: < 1e-05 s⁻¹

Problem: Fill in self-cleavage kobs at 40 uM GlcN6P for record G43U G59C
Solution: < 1e-05 s⁻¹

Problem: Fill in self-cleavage kobs at 40 uM GlcN6P for record G9A G13C U45G U57A
Solution: < 1e-05 s⁻¹

Problem: Fill in self-cleavage kobs at 40 uM GlcN6P for record U49A G51A U57A C58G
Solution: < 1e-05 s⁻¹

Problem: Fill in self-cleavage kobs at 40 uM GlcN6P for record A6G U56C
Solution: < 1e-05 s⁻¹

Problem: Fill in self-cleavage kobs at 40 uM GlcN6P for record G29A U47G
Solution: 2.24e-05 s⁻¹

Problem: Fill in self-cleavage kobs at 40 uM GlcN6P for record G7U C10G A15U C34A G40U C58G G60C G63A
Solution: < 1e-05 s⁻¹

Problem: Fill in self-cleavage kobs at 40 uM GlcN6P for record G38C C67A
Solution: < 1e-05 s⁻¹

Problem: Fill in self-cleavage kobs at 40 uM GlcN6P for record A12U G41A
Solution: 0.000183 s⁻¹

Problem: Fill in self-cleavage kobs at 40 uM GlcN6P for record C34G G41A G44U A53U
Solution: < 1e-05 s⁻¹

Problem: Fill in self-cleavage kobs at 40 uM GlcN6P for record U49G A53G
Solution: 3.67e-05 s⁻¹

Problem: Fill in self-cleavage kobs at 40 uM GlcN6P for record U46G A64C
Solution: < 1e-05 s⁻¹

Problem: Fill in self-cleavage kobs at 40 uM GlcN6P for record C58U G59C
Solution: < 1e-05 s⁻¹

Problem: Fill in self-cleavage kobs at 40 uM GlcN6P for record G9C G41C
Solution: < 1e-05 s⁻¹

Problem: Fill in self-cleavage kobs at 40 uM GlcN6P for record G29C G41U U46C G62U
Solution: < 1e-05 s⁻¹

Problem: Fill in self-cleavage kobs at 40 uM GlcN6P for record A33C G66U
Solution: < 1e-05 s⁻¹

Problem: Fill in self-cleavage kobs at 40 uM GlcN6P for record C16A G66C
Solution: < 1e-05 s⁻¹

Problem: Fill in self-cleavage kobs at 40 uM GlcN6P for record U30C U49A G60C
Solution: < 1e-05 s⁻¹

Problem: Fill in self-cleavage kobs at 40 uM GlcN6P for record U30A U31C
Solution: 5.91e-05 s⁻¹

Problem: Fill in self-cleavage kobs at 40 uM GlcN6P for record U49G U57A
Solution: < 1e-05 s⁻¹

Problem: Fill in self-cleavage kobs at 40 uM GlcN6P for record G13A G44C C61A U69G
Solution: < 1e-05 s⁻¹

Problem: Fill in self-cleavage kobs at 40 uM GlcN6P for record G60U A64G
Solution: < 1e-05 s⁻¹

Problem: Fill in self-cleavage kobs at 40 uM GlcN6P for record C8U C68G
Solution: 0.000619 s⁻¹

Problem: Fill in self-cleavage kobs at 40 uM GlcN6P for record G7C U47C A64U
Solution: < 1e-05 s⁻¹

Problem: Fill in self-cleavage kobs at 40 uM GlcN6P for record C50G U56G C61A
Solution: 8.29e-05 s⁻¹

Problem: Fill in self-cleavage kobs at 40 uM GlcN6P for record A36G A39U A48U C70G
Solution: < 1e-05 s⁻¹

Problem: Fill in self-cleavage kobs at 40 uM GlcN6P for record A12U U49A
Solution: < 1e-05 s⁻¹
